Target: T1, B7-H4 expressed on cells (MX-1 cells; CHO-S cells stably expressing B7-H4) (human, UniProt Q7Z7D3 25-282)
T1 construct: whole, on cells; also called huB7-H4; antigens expressed by cells
T1 sequence (looked up): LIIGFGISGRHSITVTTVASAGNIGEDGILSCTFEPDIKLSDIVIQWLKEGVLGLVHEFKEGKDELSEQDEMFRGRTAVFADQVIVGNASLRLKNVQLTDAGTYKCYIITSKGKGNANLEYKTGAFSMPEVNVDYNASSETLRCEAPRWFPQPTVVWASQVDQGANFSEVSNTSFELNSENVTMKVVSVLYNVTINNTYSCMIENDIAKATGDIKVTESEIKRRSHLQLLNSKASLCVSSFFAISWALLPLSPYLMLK
Assay: flow cytometry (FACS) on MX-1 cells
Measured property: EC50 (nM)
Numbers only, in nM.

Use these answered entries as a reference point.
{"Binder": "humanized anti-B7-H4 antibody hu1C9 (antibody, human IgG1, kappa, V domains shown, human IgG1 / kappa; also called humanized antibody 1C9) VH: EVQLVQSGAEVKKPGASVKVSCKASGDTFTTYWMNWVRQAPGQRLEWMGGIYLNRGSSEYNEKFKGRVTLTVDTSASTAYMELSSLRSEDTAVYYCARDSRFSYWGQGTLVTVSS VL: DIQMTQSPSSLSASVGDRVTITCKASQDVSTAVAWYQQKPGKAPKLLISSASYRYTGVPSRFSGSGSGTDFTFTISSLQPEDIATYYCQQHYNTPLTFGGGTKVEIKR", "Units label": "nM", "EC50": 7.25}
{"Binder": "humanized anti-B7-H4 antibody hu2G6 (antibody, human IgG1, kappa, V domains shown, human IgG1 / kappa; also called humanized antibody 2G6) VH: EVQLLESGGGLVQPGGSLRLSCAASGFTFSRYGMSWVRQAPGKGLEWVSGINGGGSYTYYLDTVKGRFTISRDNARNTLYLQMSSLRAEDTAVYYCVSQGSNYYFDYWGQGTLVTVSS VL: DIRMTQSPSSLSASVGDRVTITCHASQGISSNIGWLQQKPGKAPKALIYHGTNLEDGVPSRFSGSGSGADYTLTISSLQPEDFATYYCVQYAQFPYTFGGGTKVEIKR", "Units label": "nM", "EC50": 14.3}
{"Binder": "humanized anti-B7-H4 antibody hu2F7 (antibody, human IgG1, kappa, V domains shown, human IgG1 / kappa; also called humanized antibody 2F7) VH: EVQLVESGGGLVQPGGSLRLSCAASGFTFSNYYMSWVRQAPGKGLEWVAYVSSGGGSTYYSDSVKGRFTISRDNAKNTLYLQMSSLRAEDTAVYYCTRESYSQGNYFDYWGQGTTVTVSS VL: EIVMTQSPATLSLSPGERATLSCRASQSISDYLHWYQQKPGQSPRLLIKFASQSISGIPARFSGSGSGTDFTLTISSLEPEDFAVYYCQNGHSFSLTFGQGTKLEIKR", "Units label": "nM", "EC50": 7.32}

Next item in the queue.
Let me know recorded EC50 for humanized anti-B7-H4 antibody hu2F8 (antibody, human IgG1, kappa, V domains shown, human IgG1 / kappa; also called humanized antibody 2F8) VH: EVQLVQSGAEVKKPGASVKVSCKASGYTFTSSWMNWVRQAPGQRLEWMGGIYPNRGNIEYNEKFKGRVTLTVDTSASTAYMELSSLRSEDTAVYYCARDSRFSYWGQGTLVTVSS VL: DIQMTQSPSSLSASVGDRVTITCKASQDVRTAVAWYQQKPGKAPKLLISSTSYRYTGVPSRFSGSGSGTDFTFTISSLQPEDIATYYCQQHYSTPLTFGGGTKVEIKR , thanks.
7.26

Value source: patent US20210032347A1
